The entries below come with measured growth inhibition values attached.
- assay-name: NCI Yeast Anticancer Drug Screen. Data for the bub3 strain (AID 167)
- recorded-conditions: S. cerevisiae bub3 mutant strain, at 50.0 µM (retest, dose inferred, filed as 5.0), hits give high values
The panel holds about 79,000 compounds, 15% with a hit somewhere; the sample as a whole holds those more often.
Write the answer as a number in %, unit excluded.

These solved cases illustrate the format of a correct answer.
compound | measurement-unit | growth inhibition
CCCCCCSc1ncnc2[nH]ncc12 | % | 54
COc1cc([C@@H]2c3cc4c(cc3[C@H](OC3OC5COC(C(C)C)OC5C(O)C3O)C3COC(=O)[C@@H]32)OCO4)cc(OC)c1O (stereo not given in full) | % | 21
C=C(Cl)COC(=O)Nc1cccc(Cl)c1 | % | 18
CC(=O)ON=C1C=CC(=C(C#N)c2ccc(Cl)cc2)C=C1 | % | 75

// next item, growth inhibition requested
For record `CSc1nc(C)c(CCOC(C)=O)c(N=P(c2ccccc2)(c2ccccc2)c2ccccc2)n1` the listed growth inhibition is 93
